For each record, write down the corresponding diameter of the inhibition zone (DIZ).
# Test system: Pseudomonas viridiflava
# TEST METHOD NOTES: In vitro antibacterial activity against Pseudomonas viridiflava 8 assessed as inhibition at 0.1 %
# Type: functional
Answer with a number only, understood to be in cm.

diameter of the inhibition zone (DIZ) for Pseudomonas viridiflava with input Nc1nc2ccccc2n1Cc1ccc(Cl)cc1 equals 1

// molecule Nc1nc2ccccc2n1Cc1ccccc1Cl , assay Pseudomonas viridiflava, diameter of the inhibition zone (DIZ) value: 2

Entry O=[N+]([O-])c1ccc(/C=N/c2nc3ccccc3[nH]2)o1 : diameter of the inhibition zone (DIZ) on Pseudomonas viridiflava = 2

The reported diameter of the inhibition zone (DIZ) value, Pseudomonas viridiflava, for Cc1cc2ncn(Cc3cccc(Cl)c3)c2cc1C reads 2

Sample Cc1cc2nc(N)n(Cc3cccc(Cl)c3)c2cc1C , system: Pseudomonas viridiflava. Its diameter of the inhibition zone (DIZ) is 2

Reading of diameter of the inhibition zone (DIZ) for Nc1nc2ccccc2n1/N=C/c1ccc([N+](=O)[O-])o1 with Pseudomonas viridiflava: 2

Entry Nc1nc2ccccc2n1Cc1cccc(Cl)c1 , Pseudomonas viridiflava data, diameter of the inhibition zone (DIZ) value: 3

Cc1cc2nc(N)n(Cc3ccc(Cl)cc3)c2cc1C on Pseudomonas viridiflava gives diameter of the inhibition zone (DIZ) = 1

// returns diameter of the inhibition zone (DIZ) for Cc1cc2nc(/N=C/c3ccc([N+](=O)[O-])o3)n(Cc3ccc(Cl)cc3)c2cc1C with Pseudomonas viridiflava; value = 1

For the molecule Cc1cc2c(cc1C)[n+](N)cn2Cc1ccc(Cl)cc1.O=S(=O)([O-])c1ccccc1 , the measured diameter of the inhibition zone (DIZ) on Pseudomonas viridiflava was 2

// assay Pseudomonas viridiflava, entry Cc1ccc(Cn2cnc3cc(C)c(C)cc32)cc1 , diameter of the inhibition zone (DIZ) value = 1

###

# Tested on: Agrobacterium tumefaciens
# TEST METHOD NOTES: In vivo antibacterial activity against Agrobacterium tumefaciens infected carrots assessed as effective at 0.01%
# Format: functional
METRIC: Efficacy (%)
Give the quantity in %, number only.

Value (Efficacy, Agrobacterium tumefaciens) for record CCCCn1c(N)nc2ccccc21 = 30

The observed Efficacy for Cc1ccc(Cn2c(/N=C/c3ccc([N+](=O)[O-])o3)nc3ccccc32)cc1 when tested with Agrobacterium tumefaciens stands at 70

Tested on Agrobacterium tumefaciens, the item Cc1cc2ncn(Cc3cccc(F)c3)c2cc1C showed Efficacy equal to 70

Record CCCCCCn1c(N)nc2ccccc21 ; system Agrobacterium tumefaciens; Efficacy = 30

Query CCCCn1c(/N=C/c2ccc([N+](=O)[O-])o2)nc2ccccc21 on Agrobacterium tumefaciens; Efficacy returned: 70

Lab note: compound Cc1cc2ncn(Cc3ccc(Cl)cc3)c2cc1C tested on Agrobacterium tumefaciens; recorded Efficacy was 30

Note to self: Efficacy of O=[N+]([O-])c1ccc(/C=N/c2nc3ccccc3n2Cc2cccc(Cl)c2)o1 with Agrobacterium tumefaciens was 100

Here CCCCCCn1c(/N=C/c2ccc([N+](=O)[O-])o2)nc2ccccc21 was tested on Agrobacterium tumefaciens, and its Efficacy came to 70

Recorded Efficacy for Cc1cc2nc(/N=C/c3ccc([N+](=O)[O-])o3)n(Cc3ccc(Cl)cc3)c2cc1C on Agrobacterium tumefaciens was 70

Efficacy on Agrobacterium tumefaciens for CCn1c(/N=C/c2ccc([N+](=O)[O-])o2)nc2ccccc21 is 70

The recorded Efficacy with Agrobacterium tumefaciens for O=[N+]([O-])c1ccc(/C=N/c2nc3ccccc3n2Cc2ccccc2Cl)o1 was 70
